# ASSAY_TEXT: in vitro
# Format: cell-based
# CONDITIONS: mouse; RAW264.7 cells; 80 μM for 2 h, then LPS (500 ng/mL) 20 h; read-out: Cell viability, Average (%)
OBSERVATION_TYPE: viability at 22 h, 80 μM
A complete answer gives the number followed by the unit.

Consider the reported viability at 22 h, 80 μM for these molecules:
N#CC1=C(N)Oc2c(c(=O)oc3ccccc23)C1c1ccccc1OC(F)(F)F (stereo not drawn) [Coumarin derivative 12]    106%
N#CC1=C(N)Oc2c(c(=O)oc3ccccc23)C1c1ccccc1C(F)(F)F (stereo not drawn) [Coumarin derivative 4]    88.7%

Note to self: viability at 22 h, 80 μM recorded for N#CC1=C(N)Oc2c(c(=O)oc3ccccc23)C1c1ccc(C#N)cc1 (stereo not drawn) [Coumarin derivative 22] was 114%
